# ASSAYED_SYSTEM: human F508del-CFTR (Homo sapiens, UniProt P13569, DEL508-508)
# Sequence (P13569 with tags, fused parts or gaps DEL508-508): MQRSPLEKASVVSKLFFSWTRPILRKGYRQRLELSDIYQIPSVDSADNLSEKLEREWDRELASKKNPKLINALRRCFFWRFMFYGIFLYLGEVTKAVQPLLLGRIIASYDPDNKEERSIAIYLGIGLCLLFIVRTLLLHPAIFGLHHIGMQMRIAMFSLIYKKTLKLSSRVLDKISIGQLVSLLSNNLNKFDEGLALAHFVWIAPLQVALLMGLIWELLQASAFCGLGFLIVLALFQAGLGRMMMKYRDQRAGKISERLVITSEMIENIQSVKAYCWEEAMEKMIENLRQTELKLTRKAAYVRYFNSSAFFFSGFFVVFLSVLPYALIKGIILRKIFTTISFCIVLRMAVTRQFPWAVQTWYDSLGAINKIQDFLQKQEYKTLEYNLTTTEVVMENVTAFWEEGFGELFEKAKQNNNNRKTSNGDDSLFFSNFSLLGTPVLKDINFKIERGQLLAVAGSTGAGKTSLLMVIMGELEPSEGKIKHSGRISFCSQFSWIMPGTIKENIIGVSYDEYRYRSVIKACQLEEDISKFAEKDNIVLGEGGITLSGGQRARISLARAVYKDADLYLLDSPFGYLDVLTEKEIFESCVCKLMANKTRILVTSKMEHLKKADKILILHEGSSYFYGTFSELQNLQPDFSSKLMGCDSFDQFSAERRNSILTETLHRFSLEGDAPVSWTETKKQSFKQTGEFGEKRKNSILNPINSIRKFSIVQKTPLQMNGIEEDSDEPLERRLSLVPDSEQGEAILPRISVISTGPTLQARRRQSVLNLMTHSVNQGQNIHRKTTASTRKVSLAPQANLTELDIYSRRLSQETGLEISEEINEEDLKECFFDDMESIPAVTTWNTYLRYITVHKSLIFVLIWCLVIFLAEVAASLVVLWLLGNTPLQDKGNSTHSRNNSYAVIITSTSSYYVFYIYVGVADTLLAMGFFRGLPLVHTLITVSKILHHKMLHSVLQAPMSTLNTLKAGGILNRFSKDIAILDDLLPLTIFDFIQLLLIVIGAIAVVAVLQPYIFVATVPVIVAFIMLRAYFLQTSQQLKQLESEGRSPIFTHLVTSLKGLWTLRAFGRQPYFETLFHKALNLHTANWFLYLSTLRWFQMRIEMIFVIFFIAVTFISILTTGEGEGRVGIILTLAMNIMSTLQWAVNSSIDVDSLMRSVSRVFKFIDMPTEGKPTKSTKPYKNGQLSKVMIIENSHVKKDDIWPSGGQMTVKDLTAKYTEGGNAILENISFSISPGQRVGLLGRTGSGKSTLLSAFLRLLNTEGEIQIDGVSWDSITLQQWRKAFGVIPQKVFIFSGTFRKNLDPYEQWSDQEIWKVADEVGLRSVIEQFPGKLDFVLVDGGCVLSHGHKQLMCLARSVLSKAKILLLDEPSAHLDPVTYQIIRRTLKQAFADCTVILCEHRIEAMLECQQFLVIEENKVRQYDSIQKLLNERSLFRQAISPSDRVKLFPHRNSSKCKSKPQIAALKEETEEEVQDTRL
# ASSAY_COMMENT: F508del-CFTR cell surface expression (corrector activity), DiscoveRx ß-galactosidase complementation chemiluminescence assay in recombinant U2OS cell line
# EXPERIMENTAL_PARAMETERS: EC50, F508del-CFTR cell surface expression, U2OS cells, 16h compound incubation; geomean of several measurements
Parameter EC50: see the listing below.
Answer with the value and then the unit.

COMPOUND	EC50
COc1cc(CCNC(=O)[C@@H]2CC(=O)N(C)[C@@H](CC(C)C)C(=O)N(C)[C@@H](CC(F)(F)F)C(=O)N[C@H](Cc3ccccc3)COc3ccc4nc(C)oc4c3C(=O)N2)on1 (mixture of isomers) [Example 974]	703 nM
Cc1cc2c3c(ccc2cn1)OC[C@@H](Cc1ccccc1)NC(=O)[C@@H](Cc1nc(-c2ccc(F)cn2)no1)N(C)C(=O)[C@H](CC(C)C)N(C)C(=O)C[C@@H](C(=O)NCCc1noc(C2CC2)n1)NC3=O [Example 905]	311 nM
CC(C)C[C@H]1C(=O)N(C)[C@H](Cc2nc(C(F)(F)F)no2)C(=O)N[C@H](Cc2ccccc2)COc2ccc3ncc(F)cc3c2C(=O)N[C@H](C(=O)NCCCOC(F)F)CC(=O)N1C [Example 944]	77 nM
COc1nccc2c1C(=O)N[C@H](C(=O)NCCn1nc3ccccc3n1)CC(=O)N(C)[C@@H](CC(C)C)C(=O)N1CCCC[C@@H]1C(=O)N[C@H](Cc1ccccc1)CO2 [Example 832]	518 nM
COc1noc(CCNC(=O)[C@@H]2CC(=O)N(C)[C@@H](CC(C)C)C(=O)N(C)C3(CC3)C(=O)N[C@H](Cc3ccccc3)COc3ccc4ncc(F)cc4c3C(=O)N2)c1F [Example 963]	267 nM

Request: EC50, test system human F508del-CFTR (Homo sapiens, UniProt P13569, DEL508-508), entry CC(C)C[C@H]1C(=O)N(C)[C@H](Cc2nc(C(F)(F)F)no2)C(=O)N[C@H](Cc2ccccc2)COc2ccc3ncc(F)cc3c2C(=O)N[C@H](C(=O)NCCn2nc3ccccc3n2)CC(=O)N1C [Example 937] 59 nM

Same again, this time with Cc1cc2c3c(ccc2cn1)OC[C@@H](Cc1ccccc1)NC(=O)C1(CC(F)(F)C1)N(C)C(=O)[C@H](CC(C)C)N(C)C(=O)C[C@@H](C(=O)NCCc1nc(C2CC2)no1)NC3=O [Example 952] 339 nM

Follow-up item: COc1noc(CCNC(=O)[C@@H]2CC(=O)N(C)[C@@H](CC(C)C)C(=O)N(C)[C@H](CC(F)F)C(=O)N[C@H](Cc3ccccc3)COc3ccc4cnc(C)cc4c3C(=O)N2)n1 [Example 932] 373 nM

// repeat for CCOCC[C@@H]1C(=O)N[C@H](Cc2ccccc2)COc2ccc3ncc(F)cc3c2C(=O)N[C@H](C(=O)NCCc2cc(C)no2)CC(=O)N(C)[C@@H](CC(C)C)C(=O)N1C [Example 894] and report 339 nM

And what about the compound COCCCNC(=O)[C@@H]1CC(=O)N(C)[C@@H](CC(C)C)C(=O)N(C)[C@H](Cc2nc(-c3ccc(F)cn3)no2)C(=O)N[C@H](Cc2ccccc2)COc2cnc3ccc(F)cc3c2C(=O)N1 [Example 845] ? 453 nM

----------
Below, each entry is listed with its recorded pEC50.
# ASSAYED_SYSTEM: human F508del-CFTR (Homo sapiens, UniProt P13569, DEL508-508)
# ASSAY_COMMENT: F508del-CFTR cell surface expression (corrector activity), DiscoveRx ß-galactosidase complementation chemiluminescence assay in recombinant U2OS cell line
# EXPERIMENTAL_PARAMETERS: EC50, F508del-CFTR cell surface expression, U2OS cell line, 16h compound incubation; geomean values
Would you please state pEC50, meaning minus log10 of the concentration in mol/L, as a bare number?

// below: answered compounds
SMILES_NOTATION	DATA_VALUE
COCCOCCNC(=O)[C@@H]1CC(=O)N(C)[C@@H](CC(C)C)C(=O)N(CCC2CCCCC2)CC(=O)N[C@H](Cc2ccccc2)COc2cccc(OC)c2C(=O)N1	6.22
CC(C)C[C@H]1C(=O)N(C)C2(CC2)C(=O)N[C@H](Cc2ccccc2)COc2cnc3ccccc3c2C(=O)N[C@H](C(=O)NCCc2cc(C(C)(C)C)on2)CC(=O)N1C	6.48

May I ask what pEC50 has been recorded for COc1cccc(CCNC(=O)[C@@H]2CC(=O)N(C)[C@@H](CC(C)C)C(=O)N(C)CC(=O)N[C@H](Cc3ccccc3)COc3cnc4ccccc4c3C(=O)N2)c1 ? 6.24

And then COc1cccc(CCNC(=O)[C@@H]2CC(=O)N(C)[C@@H](CC(C)C)C(=O)N3CCCC[C@H]3C(=O)N[C@H](Cc3ccccc3)COc3ccc4ncoc4c3C(=O)N2)c1 , what is it? 6.33

Likewise for CC(C)C[C@H]1C(=O)N2CCCC[C@@H]2C(=O)N[C@H](Cc2ccccc2)COc2cnc3ccccc3c2C(=O)N[C@H](C(=O)NCCc2cnn(C)c2)CC(=O)N1C ? 6.14

----------
# ASSAYED_SYSTEM: human F508del-CFTR (Homo sapiens, UniProt P13569, DEL508-508)
# ASSAY_COMMENT: F508del-CFTR cell surface expression (corrector activity), DiscoveRx ß-galactosidase complementation chemiluminescence assay in recombinant U2OS cell line
# EXPERIMENTAL_PARAMETERS: EC50, F508del-CFTR cell surface expression, U2OS cell line, 16h compound incubation; geomean values
Collected pEC50 values appear next to each entry.
// pEC50 here means minus log10 of the molar concentration (mol/L)

Would you please look over these solved cases?
COMPOUND	OBSERVATION_TYPE	DATA_VALUE
CCOc1cccc(CCNC(=O)[C@@H]2CC(=O)N(C)[C@@H](CC(C)C)C(=O)N3CCOC[C@@H]3C(=O)N[C@H](Cc3ccccc3)COc3ccc4ccccc4c3C(=O)N2)c1 [Example 397]	pEC50	6.58
COc1cc(CCNC(=O)[C@@H]2CC(=O)N(C)[C@@H](CC(C)C)C(=O)N3CCCC[C@@H]3C(=O)N[C@H](Cc3ccccc3)COc3ccc4ncn(C)c4c3C(=O)N2)cc(OC)c1 [Example 328]	pEC50	6.01

Query: pEC50; subject: CC(C)C[C@H]1C(=O)N(CCc2ccccc2)CC(=O)N[C@H](Cc2ccccc2)COc2cc3c(cc2C(=O)N[C@H](C(=O)NCCc2ccc4c(c2)OCO4)CC(=O)N1C)OCO3 (racemic) [Example 5] 6.43

Record: CC(C)C[C@H]1C(=O)N2CCOC[C@@H]2C(=O)N[C@H](Cc2ccccc2)COc2cnc3ccccc3c2C(=O)N[C@H](C(=O)NCCc2ccc(C(C)(C)C)cc2)CC(=O)N1C [Example 48] 6.39

Similarly, [2H]C([2H])([2H])Oc1cccc(CCNC(=O)[C@@H]2CC(=O)N(C)[C@@H](CC(C)C)C(=O)N(CCC3CCCCC3)CC(=O)N[C@H](Cc3ccccc3)COc3ccc4c(c3C(=O)N2)OCO4)c1 [Example 347] ? 6.88

----------
# ASSAYED_SYSTEM: human F508del-CFTR (Homo sapiens, UniProt P13569, DEL508-508)
# ASSAY_COMMENT: F508del-CFTR cell surface expression (corrector activity), DiscoveRx ß-galactosidase complementation chemiluminescence assay in recombinant U2OS cell line
# EXPERIMENTAL_PARAMETERS: EC50, F508del-CFTR cell surface expression, U2OS cell line, 16h compound incubation; geomean values
// values below are reported EC50
Just the number please, in nM, no unit attached.

Please review the following examples before continuing.
COMPOUND	READOUT_UNITS	EC50
COc1cccc2c1C(=O)N[C@H](C(=O)NCCc1ccc3ccoc3c1)CC(=O)N(C)[C@@H](CC(C)C)C(=O)N(CCC1CCCCC1)CC(=O)N[C@H](Cc1ccccc1)CO2 (racemic)	nM	160
CN1CC(=O)N[C@H](Cc2ccccc2)COc2cc3c(cc2C(=O)N[C@H](C(=O)NCCc2ccc4c(c2)OCO4)CC(=O)N(C)[C@@H](CC2CCC2)C1=O)OCO3	nM	398

Now turn to the next compound.
Entry CCc1nc(CCNC(=O)[C@@H]2CC(=O)N(C)[C@@H](CC(C)C)C(=O)N3CCOC[C@@H]3C(=O)N[C@H](Cc3ccccc3)COc3ccc4ccccc4c3C(=O)N2)no1 : reported EC50 = ? 571

----------
# ASSAYED_SYSTEM: human F508del-CFTR (Homo sapiens, UniProt P13569, DEL508-508)
# ASSAY_COMMENT: F508del-CFTR cell surface expression (corrector activity), DiscoveRx ß-galactosidase complementation chemiluminescence assay in recombinant U2OS cell line;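 note: U2OS cells co-expressing ProLink-tagged F508del-CFTR and a membrane-anchored enzyme acceptor, where more surface CFTR restores β-galactosidase activity measured by chemiluminescence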
# EXPERIMENTAL_PARAMETERS: EC50, F508del-CFTR cell surface expression, U2OS cells, 16h compound incubation; geomean values
OBSERVATION_TYPE: pEC50
Notebook: values listed as pEC50 are -log10 of the concentration (mol/L).

GET /values?readout=pEC50&system=human F508del-CFTR (Homo sapiens, UniProt P13569, DEL508-508)&item= COc1cc2c(cc1OC)C(=O)N[C@H](C(=O)NCCc1ccc3c(c1)OCCC3)CC(=O)N(C)[C@@H](CC(C)C)C(=O)N(CCC1CCCCC1)CC(=O)N[C@H](Cc1ccccc1)CO2 6.78

Another: COc1cccc(CCNC(=O)[C@@H]2CC(=O)N(C)[C@@H](CC(C)C)C(=O)N3CCN([S@@](=N)(=O)c4ccccc4)C[C@@H]3C(=O)N[C@H](Cc3ccccc3)COc3ccc4ccccc4c3C(=O)N2)c1 6.48

Again, but for COc1cccc(CCNC(=O)[C@@H]2CC(=O)N(C)[C@@H](CC(C)C)C(=O)N3CCN(C(C)=O)C[C@@H]3C(=O)N[C@H](Cc3ccccc3)COc3ccc4ccccc4c3C(=O)N2)c1 6.11
